Test system: 92.1 cells (GNAQ Q209L mutation)
Assay: Cell proliferation inhibition assay
Assay type: cell-based
Measurement Conditions: 72 h, read-out: Antiproliferation (IC50, μmol/L) 92.1
Quantity Kind: pIC50
Keep it numeric: pIC50 is minus log10 of the concentration in mol/L.

Task: What value of pIC50 has been recorded for this entry: `NCCCC[C@H](N)CN1CCn2cc(-c3ccccc3)nc2[C@@H]1CC1CCCCC1`
Output: 4.95

Task: Now this one: `CC[C@H](C)[C@H](N)C(=O)N1CCn2cc(C3CCCCC3)nc2[C@@H]1CC1CCCCC1`
Output: 4.67

====

Assay: Pharmacokinetic studies in ICR mice
Type: in vivo
Measurement Conditions: male, mouse, plasma, iv, 5 mg/kg
Quantity Kind: clearance (mL/min/kg)
Give the value, in units of mL/min/kg, as a plain number.

Task: Record request: clearance value, item `CN1CCC[C@H]1CN1CCn2cc(-c3ccccc3)nc2[C@@H]1CC1CCCCC1`
Output: 50.2
